Entries and their measured Cmax follow.
test_summary: Cmax in Sprague-Dawley rat at 10 mg/kg, po by LC-MS/MS analysis
Assay type: ADME, organism-based
Design: dose 10 mg/kg, route po
experimental_parameters: in vivo
Just the number please, in ng/mL, no unit attached.

These solved cases illustrate the format of a correct answer.
chemical_string	Cmax, ng/mL
CC(=O)N1CCN([C@H]2CCC[C@@H](NC(=O)c3cc4c(F)ccc(C)c4[nH]3)C2)CC1	2100
Cc1ccc(F)c2cc(C(=O)N[C@@H]3CCC[C@H](N4CCN5C(=O)CC[C@H]5C4)C3)[nH]c12	1600

With those in mind, consider the next compound.
q: For "CC(=O)N1CCN(c2cccc(NC(=O)c3cc4c(F)ccc(C)c4[nH]3)c2)CC1" , what is its reported Cmax?
a: 200
